# accumulation of cells in the G0/G1 phase per record follows
Tested on: THP1 cells
Format: cell-based, human
test.parameters: THP-1 cells, 10 μM, 24 h; untreated cells 68.3%
Give a bare numeral; the unit % is implied.

Reference set (5 entries):
>>> measured_result("Cc1ccc(S(=O)(=O)n2cc(C(C#Cc3ccccc3)c3cc4c(cc3O)NC(=O)/C4=C\\c3[nH]c(C)cc3C)c3ccccc32)cc1 (stereo not drawn)")
97
>>> measured_result("Cc1ccsc1/C=C1\\C(=O)Nc2cc(O)c(C(C#Cc3ccccc3)c3ccccc3)cc21 (stereo not drawn)")
94.3
>>> measured_result("COc1cccc(-c2c(COCc3ccccc3)oc3cc4c(cc23)/C(=C/c2[nH]c(C)cc2C)C(=O)N4)c1OC")
98.1
>>> measured_result("COc1cccc(C(C#CCOCc2ccccc2)c2cc3c(cc2O)NC(=O)C3)c1OC (stereo not drawn)")
98.5
>>> measured_result("Cc1cc(C)c(/C=C2\\C(=O)Nc3cc4oc(Cc5ccccc5)c(-c5ccccc5)c4cc32)[nH]1")
98

Okay, next one:
Query :: Given the molecule CCN(CC)CCNC(=O)c1c(C)[nH]c(/C=C2\C(=O)Nc3ccc(F)cc32)c1C [SUNT, Sunitinib, reference compound] , what is its reported accumulation of cells in the G0/G1 phase?
Result :: 99.5
